Values from ChEMBL document CHEMBL3997831

# Assay info: AUC (0 to 24 hrs) in Sprague-Dawley rat at 10 mg/kg, po by LC-MS/MS analysis
# Type: ADME, organism-based
# Parameters: dose 10 mg/kg, time < 24 hr, route oral
# Protocol conditions: Sprague-Dawley, in vivo
Parameter: AUC(0-t) at 24 h (µM·h)

Some solved entries appear below for comparison.
[[record]]
smiles_code = "CC(C)[C@H](N)C(=O)OCOC(=O)N(c1c(Cl)cc(OC(F)F)cc1Cl)c1nc(Cl)cn([C@@H](C)C2CC2)c1=O.Cl"
parameter = "AUC(0-t) at 24 h"
endpoint_unit = "µM·h"
numeric_readout = 7.37

[[record]]
smiles_code = "C[C@@H](C1CC1)n1cc(Cl)nc(N(C(=O)OCOP(=O)(O)O)c2c(Cl)cc(OC(F)F)cc2Cl)c1=O"
parameter = "AUC(0-t) at 24 h"
endpoint_unit = "µM·h"
numeric_readout = 3.99

[[record]]
smiles_code = "C[C@@H](C1CC1)n1cc(Cl)nc(N(COP(=O)([O-])[O-])c2c(Cl)cc(OC(F)F)cc2Cl)c1=O.[Na+].[Na+]"
parameter = "AUC(0-t) at 24 h"
endpoint_unit = "µM·h"
numeric_readout = 5.99

[[record]]
smiles_code = "C[C@H](N)C(=O)OCOC(=O)N(c1c(Cl)cc(OC(F)F)cc1Cl)c1nc(Cl)cn([C@@H](C)C2CC2)c1=O.Cl"
parameter = "AUC(0-t) at 24 h"
endpoint_unit = "µM·h"
numeric_readout = 8.25


1: C[C@@H](C1CC1)n1cc(Cl)nc(N(C(=O)OCOC(=O)CCN)c2c(Cl)cc(OC(F)F)cc2Cl)c1=O.Cl
2: C[C@@H](C1CC1)n1cc(Cl)nc(N(C(=O)OCCCOP(=O)([O-])[O-])c2c(Cl)cc(OC(F)F)cc2Cl)c1=O.[Na+].[Na+]
3: C[C@@H](C1CC1)n1cc(Cl)nc(Nc2c(Cl)cc(OC(F)F)cc2Cl)c1=O
Sort these compounds on AUC(0-t) at 24 h so the largest reading comes first. When ranking, write the labels in the order the request describes. 1, 2, 3
